Test system: Plasmodium berghei
testSummary: Screen against P. berghei liver stage (PbLuc), transformed with Luciferase, at 10uM
Type: functional, HepG2
conditionInfo: tested at 10 uM
Screen size: about 69,000 compounds; about 8,600 (12%) showed an effect of 50% or more. This is one part of a sample in which strong results are shown more often than they occur.
Give INHIBITION for every item shown.

// below: answered compounds
{"compound": "Cc1ccc(CC(=O)N2CCOCC2c2c(C)n[nH]c2C)cc1 (centres undefined)", "targetDesc": "Plasmodium berghei", "INHIBITION": "67.5%"}
{"compound": "CCc1c(C(=O)N2CCOC(C)(C)C2)cnn1-c1ccccn1", "targetDesc": "Plasmodium berghei", "INHIBITION": "4.95%"}
{"compound": "Cc1noc(C)c1CN1CCn2nc(CCC(=O)N3CCCC3)cc2C1", "targetDesc": "Plasmodium berghei", "INHIBITION": "19.3%"}

Moving on to another compound below.
stdin: With Plasmodium berghei as the test system, provide measured INHIBITION for this compound: Cc1n[nH]c(C)c1C1COCCN1C(=O)c1ccc(Cl)o1 (centres undefined)
stdout: -0.482%
